Target: HLA-B*35:01
Assay: IEDB peptide-MHC binding, purified MHC/competitive/radioactivity; filed as Kd, often an IC50 or EC50 that approximates it; bounds were set here for any values at or beyond the usual limits of such assays
Settings: source organism: Vaccinia virus Copenhagen
experimental.endpoint: Kd (µM)
Express it in µM; write the number only.

Exam item: Return reported Kd; argument: FLIVSLCPT
Marked response: 16

----------
Target: HLA-A*26:01
Experiment: IEDB peptide-MHC binding, purified MHC/competitive/fluorescence; filed as Kd, often an IC50 or EC50 that approximates it; bounds were set here for any values at or beyond the usual limits of such assays
Conditions: source organism: Pseudomonas aeruginosa PACS2
experimental.endpoint: Kd

Exam item: Looking for the measured Kd of KLIDVSKCI , can you help?
Marked response: ≥ 20 µM
